- Tested on: Human immunodeficiency virus 1
- PROTOCOL SUMMARY: Antiviral activity against Human immunodeficiency virus 1 isolate M1 expressing protease L10I, M46I, I64V, I84V, L90M, I93L mutant infected in human MT4 cells
- Format: functional, organism-based
- CONDITION DETAILS: Human immunodeficiency virus 1, isolate M1, MT4
REPORTED METRIC: EC50

• CNc1nc2ccc(S(=O)(=O)N(CC(C)C)C[C@@H](O)[C@H](Cc3ccccc3)NC(=O)O[C@H]3CO[C@H]4OC[C@H](OCc5ccccc5)[C@H]43)cc2o1 = 1.7 nM
• COC(=O)N[C@H](C(=O)N[C@@H](Cc1ccccc1)[C@@H](O)CN(Cc1ccc(-c2ccccn2)cc1)NC(=O)[C@@H](NC(=O)OC)C(C)(C)C)C(C)(C)C = 58 nM
• CNc1nc2ccc(S(=O)(=O)N(CC(C)C)C[C@@H](O)[C@H](Cc3ccccc3)NC(=O)O[C@H]3CO[C@H]4OC[C@H](OCc5cccc(F)c5)[C@H]43)cc2o1 = 0.8 nM
• Cc1cccc(C)c1OCC(=O)N[C@@H](Cc1ccccc1)[C@@H](O)C[C@H](Cc1ccccc1)NC(=O)[C@H](C(C)C)N1CCCNC1=O = 115 nM
• CNc1nc2ccc(S(=O)(=O)N(CC(C)C)C[C@@H](O)[C@H](Cc3ccccc3)NC(=O)O[C@H]3CO[C@H]4OC[C@H](OCc5ccc(F)cc5)[C@H]43)cc2o1 = 1.1 nM
